These measurements were taken from patent US11198713B2.

Target: full-length beta-catenin (Axin site) (Homo sapiens, UniProt P35222)
Construct: 15 nM full-length beta-catenin, 20 nM FITC labeled peptide in buffer
Sequence (P35222 1-781): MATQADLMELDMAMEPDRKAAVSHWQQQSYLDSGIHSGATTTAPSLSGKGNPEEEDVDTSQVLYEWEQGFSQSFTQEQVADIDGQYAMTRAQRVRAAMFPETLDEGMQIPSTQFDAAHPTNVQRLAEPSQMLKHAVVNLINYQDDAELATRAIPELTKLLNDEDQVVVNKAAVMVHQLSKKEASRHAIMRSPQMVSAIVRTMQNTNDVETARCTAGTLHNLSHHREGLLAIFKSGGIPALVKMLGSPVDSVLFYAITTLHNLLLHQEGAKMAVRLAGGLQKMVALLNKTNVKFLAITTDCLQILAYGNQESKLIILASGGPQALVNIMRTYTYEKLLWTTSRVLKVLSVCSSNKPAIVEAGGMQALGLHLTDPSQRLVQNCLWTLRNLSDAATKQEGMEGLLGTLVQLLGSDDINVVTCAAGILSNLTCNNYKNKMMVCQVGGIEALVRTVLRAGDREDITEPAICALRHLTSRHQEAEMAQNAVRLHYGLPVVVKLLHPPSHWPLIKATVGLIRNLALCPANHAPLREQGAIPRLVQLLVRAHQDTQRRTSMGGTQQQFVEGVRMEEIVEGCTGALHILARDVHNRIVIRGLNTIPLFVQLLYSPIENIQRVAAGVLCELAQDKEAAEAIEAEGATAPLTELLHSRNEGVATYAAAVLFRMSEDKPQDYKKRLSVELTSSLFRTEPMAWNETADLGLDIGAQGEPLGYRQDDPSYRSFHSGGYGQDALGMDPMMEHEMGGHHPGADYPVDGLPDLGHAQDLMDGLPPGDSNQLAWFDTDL
Assay: Competition fluorescence polarization assay (Axin site probe)
Format: binding
Conditions: competition fluorescence polarization, Table 2; read-out: in vitro FP EC50
Listing of recorded EC50 by entry.

CC[C@H](C)[C@@H]1NC(=O)[C@](C)(NC(=O)[C@H](C)NC(=O)[C@@H]2CCCN2C(C)=O)CCCC=CCCCCCC[C@@](C)(C(=O)N[C@@H](CCCNC(=N)N)C(=O)N[C@H](C(=O)N[C@@H](Cc2c[nH]c3ccccc23)C(N)=O)C(C)C)NC(=O)[C@H](C(C)C)NC(=O)[C@H](Cc2c[nH]cn2)NC(=O)[C@H](C)NC(=O)[C@H](CC(=O)O)NC(=O)[C@H](CC(C)C)NC1=O (single isomer, unassigned) [FP0212s Isomer 2, Ac-P-A-R5-I-L-D-A-H-V-S8-R-V-W-NH2]	100 to 500 nM
CC[C@H](C)[C@@H]1NC(=O)[C@H](Cc2c[nH]cn2)NC(=O)[C@H](C)NC(=O)[C@H](CC(=O)O)NC(=O)[C@H](CC(C)C)NC(=O)[C@H]([C@@H](C)CC)NC(=O)[C@](C)(NC(=O)[C@H](C)NC(C)=O)CCCCCCC=CCOC(=O)N2CC[C@@](C(=O)N[C@@H](CCCNC(=N)N(C)C)C(=O)N[C@H](C(=O)N[C@@H](Cc3c[nH]c4ccccc34)C(N)=O)C(C)C)(C2)NC1=O [FP0639c, Ac-A-R8-I-L-D-A-H-I-MB-ADMA-V-W-NH2]	< 100 nM

Please look at the following compound next.
Dear colleague, I am looking for the recorded EC50 of the following compound: CC[C@H](C)[C@@H]1NC(=O)[C@H](Cc2c[nH]cn2)NC(=O)[C@H](C)NC(=O)[C@H](CC(=O)O)NC(=O)[C@H](CC(C)C)NC(=O)[C@H]([C@@H](C)CC)NC(=O)[C@](C)(NC(=O)[C@H](C)NC(C)=O)CCCCCCCCCOC(=O)N2CC[C@@](C(=O)N[C@@H](CCCNC(=N)N)C(=O)N[C@H](C(=O)N[C@@H](Cc3c[nH]c4ccccc34)C(N)=O)C(C)C)(C2)NC1=O [FP0217rc, Ac-A-R8-I-L-D-A-H-I-MB-R-V-W-NH2]
< 100 nM

----------
experiment: Solubility in DPBS (A280 of supernatant); format: physicochemical; settings: Table 2; read-out: Solubility
Numbered stars: 1 amine (or outer) side, 2 acyl side, 3 side chain; on linkers, the order of the positions; unused ones are H or OH. Bridge positions count the residues as written; N and C are the ends. Square brackets hold non-standard residues; d marks the D form. Peptide text beside a SMILES is read from it. * marks the point of attachment. dαMeDab(Me) = CN(CC[C@@](C)(N[*:1])C(=O)[*:2])[*:3]; X1 = O=C([C@]1(N[*:1])CCN([*:3])C1)[*:2]; X2 = O=C(OCC=CCOC(=O)[*:2])[*:1]; Octanoyl = CCCCCCCC(=O)*
metric: solubility (µM)
All answers are understood in µM, so give the number only.

For the compound CCCCCCCC(=O)N[C@@H](C)C(=O)N[C@]1(C)CCN(C)C(=O)OCC=CCOC(=O)N2CC[C@@](C(=O)N[C@@H](CCCNC(=N)N)C(=O)N[C@H](C(=O)N[C@@H](Cc3c[nH]c4ccccc34)C(N)=O)C(C)C)(C2)NC(=O)[C@H]([C@@H](C)CC)NC(=O)[C@H](Cc2c[nH]cn2)NC(=O)[C@H](C)NC(=O)[C@H](CC(=O)O)NC(=O)[C@H](CC(C)C)NC(=O)[C@H]([C@@H](C)CC)NC1=O [FP0597c_c8, Oct-A-MG-I-L-D-A-H-I-MB-R-V-W-NH2] (Octanoyl-A[dαMeDab(Me)]ILDAHI[X1]RVW-NH2; linker 2-9 via X2) , what solubility is on record?
2

----------
Items are presented alongside their recorded EC50.
molecular target: full-length beta-catenin (Axin site) (Homo sapiens, UniProt P35222); construct: 15 nM full-length beta-catenin, 20 nM FITC labeled peptide in buffer; assay: Competition fluorescence polarization assay (Axin site probe); format: binding; conditions: competition fluorescence polarization, Table 2; read-out: in vitro FP EC50
Numbered stars: 1 amine (or outer) side, 2 acyl side, 3 side chain; on linkers, the order of the positions; unused ones are H or OH. Bridge positions count the residues as written; N and C are the ends. Square brackets hold non-standard residues; d marks the D form. Peptide text beside a SMILES is read from it. X14 = O=C([C@@]1(N[*:1])CCN(CC=[*:3])C1)[*:2]; S8 = C=CCCCCCC[C@](C)(N)C(=O)O

// known answers, use as guide
CC[C@H](C)[C@@H]1NC(=O)[C@H](Cc2ccccn2)NC(=O)[C@H](C)NC(=O)[C@H](CC(=O)O)NC(=O)[C@H](CC(C)C)NC(=O)[C@H]([C@@H](C)CC)NC(=O)[C@](C)(NC(=O)[C@H](C)NC(C)=O)CCCCCCC=CCOC(=O)N2CC[C@@](C(=O)N[C@H](C(=O)N[C@H](C(=O)N[C@@H](Cc3c[nH]c4ccccc34)C(N)=O)C(C)C)C(C)(C)C)(C2)NC1=O (single isomer, unassigned) [FP0568c Isomer 2, Ac-A-R8-I-L-D-A-2pyr-I-MB-tLeu-V-W-NH2]	> 5000 nM
CC[C@H](C)[C@@H]1NC(=O)[C@H](Cc2c[nH]cn2)NC(=O)[C@H](C)NC(=O)[C@H](CC(=O)O)NC(=O)[C@H](CC(C)C)NC(=O)[C@H]([C@@H](C)CC)NC(=O)[C@](C)(NC(=O)[C@H](C)NC(C)=O)CCCN(C)C(=O)OCC=CCCC[C@@](C)(C(=O)N[C@@H](CCCNC(=N)N)C(=O)N[C@H](C(=O)N[C@@H](Cc2c[nH]c3ccccc23)C(N)=O)C(C)C)NC1=O (single isomer, unassigned) [FP0506c Isomer 1, Ac-A-MI-I-L-D-A-H-I-S5-R-V-W-NH2]	100 to 500 nM
CC[C@H](C)[C@@H]1NC(=O)[C@](C)(NC(=O)[C@H](CCC(N)=O)NC(=O)[C@@H]2CCCN2C(C)=O)CCCCC=CCN2CC(C(=O)N[C@@H](Cc3c[nH]cn3)C(=O)N[C@H](C(=O)N[C@@H](CCCNC(=N)N)C(=O)N[C@@H](CCCNC(=N)N)C(=O)N[C@H](C(=O)N[C@@H](Cc3c[nH]c4ccccc34)C(=O)N[C@@H](CCCNC(=N)N)C(N)=O)C(C)C)C(C)C)(C2)NC(=O)[C@H](CC(=O)O)NC(=O)[C@H](CC(C)C)NC1=O (single isomer, unassigned) [FP0735a, Ac-P-Q-R6-I-L-D-MA-H-V-R-R-V-W-R-NH2]	500 to 5000 nM

Returns the measured EC50 for the input compound. Input: CC[C@H](C)[C@@H]1NC(=O)[C@H](Cc2ccccn2)NC(=O)[C@H](C)NC(=O)[C@H](CC(=O)O)NC(=O)[C@H](CC(C)C)NC(=O)[C@H]([C@@H](C)CC)NC(=O)[C@](C)(NC(=O)[C@H](C)NC(C)=O)CCCCCCC=CCOC(=O)N2CC[C@@](C(=O)N[C@@H](CC3CCC3)C(=O)N[C@H](C(=O)N[C@@H](Cc3c[nH]c4ccccc34)C(N)=O)C(C)C)(C2)NC1=O (single isomer, unassigned) [FP0565c Isomer 2, Ac-A-R8-I-L-D-A-2pyr-I-MB-Cba-V-W-NH2]
> 5000 nM

Please do the same for CC[C@H](C)[C@@H]1NC(=O)[C@@]2(NC(=O)[C@H](C)NC(=O)[C@@H]3CCCN3C(C)=O)CCN(CC=CCCCCCC[C@@](C)(C(=O)N[C@@H](CCCNC(=N)N)C(=O)N[C@H](C(=O)N[C@@H](Cc3c[nH]c4ccccc34)C(N)=O)C(C)C)NC(=O)[C@H](C(C)C)NC(=O)[C@H](Cc3c[nH]cn3)NC(=O)[C@H](C)NC(=O)[C@H](CC(=O)O)NC(=O)[C@H](CC(C)C)NC1=O)C2 [FP0006a, Ac-P-A-MC-I-L-D-A-H-V-S8-R-V-W-NH2] (Ac-PA[X14]ILDAHV[S8]RVW-NH2; staple 3-10) as well.
< 100 nM
